Data origin, for the record: patent US20260274954A1

EXPERIMENTAL TARGET: T1, cynomolgus PD-1 protein (construct not stated) (cynomolgus, UniProt B0LAJ3 25-170)
T1 construct: not shown: tag or Fc carrier of the recombinant (Sino Biological) cynomolgus PD-1
T1 sequence (B0LAJ3 entry or part of it limits assumed, form in doubt): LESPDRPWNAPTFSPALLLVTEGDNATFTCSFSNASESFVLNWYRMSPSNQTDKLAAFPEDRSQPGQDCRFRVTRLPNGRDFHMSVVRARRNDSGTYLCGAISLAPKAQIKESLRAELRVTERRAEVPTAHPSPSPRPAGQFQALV
ASSAY EXPLANATION: ELISA, second round mutagenesis library screen; unit not given
READOUT TYPE: Bmax
Answer field: number only, no words.

Requested field: Bmax. Item: 2C2 (antibody, V domains shown) VH: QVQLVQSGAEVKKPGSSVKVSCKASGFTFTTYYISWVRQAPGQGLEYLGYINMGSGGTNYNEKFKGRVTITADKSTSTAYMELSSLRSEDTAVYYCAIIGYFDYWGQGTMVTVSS VL: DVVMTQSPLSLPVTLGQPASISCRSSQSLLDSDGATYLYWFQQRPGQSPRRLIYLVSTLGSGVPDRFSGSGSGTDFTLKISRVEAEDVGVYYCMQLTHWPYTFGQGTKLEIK
1.67

Requested field: Bmax. Item: 8C10 (antibody, V domains shown) VH: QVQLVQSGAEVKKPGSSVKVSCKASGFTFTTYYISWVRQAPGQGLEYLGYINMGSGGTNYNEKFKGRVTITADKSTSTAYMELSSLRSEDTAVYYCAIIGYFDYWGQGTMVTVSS VL: DVVMTQSPLSLPVTLGQPASISCRSSQSLLDSDGQTYLYWFQQRPGQSPRRLIYLVSTLGSGVPDRFSGSGSGTDFTLKISRVEAEDVGVYYCMQLTHENYTFGQGTKLEIK
1.11

Requested field: Bmax. Item: 2G4 (antibody, V domains shown) VH: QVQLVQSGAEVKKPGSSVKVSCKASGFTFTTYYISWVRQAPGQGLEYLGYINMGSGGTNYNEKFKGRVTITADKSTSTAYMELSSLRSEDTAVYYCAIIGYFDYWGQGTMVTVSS VL: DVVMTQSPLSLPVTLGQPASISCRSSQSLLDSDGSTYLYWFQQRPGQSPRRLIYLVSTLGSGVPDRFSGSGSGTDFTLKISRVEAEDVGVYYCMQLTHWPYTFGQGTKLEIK
1.72
